Test system: K-562 leukemia
Test: NCI-60 one-dose screen, 48 h (100 = growth as untreated, 0 = no growth, -100 = all killed)
Details: 10 µM unless noted
This is part of a sample that, as a whole, favours compounds with a hit. Of some 83,000 tested, about 20% had one in any assay.
Known growth of a selection of compounds
Write the number in % without appending the unit.

Worked cases, growth given:
CHEMICAL_STRUCTURE: COc1cc2cc(C(=O)N3C[C@@H](CCl)c4c3cc(OC(=O)N(CCC(=O)N3CCN(C)CC3)[C@H]3CCSSC3)c3ccccc43)[nH]c2c(OC)c1OC
TARGET_OF_ASSAY: K-562 leukemia
UNITS_LABEL: %
growth: -8.96
//
CHEMICAL_STRUCTURE: NS(=O)(=O)c1cccc(Nc2nc(SCC(=O)c3ccc(F)cc3)nc3ccccc23)c1
TARGET_OF_ASSAY: K-562 leukemia
UNITS_LABEL: %
growth: 8.34
//
CHEMICAL_STRUCTURE: Cn1cc(-c2cc(N)n3nc(-c4c[nH]c5ccc(Cl)cc45)cc3n2)c2cccnc21
TARGET_OF_ASSAY: K-562 leukemia
UNITS_LABEL: %
growth: -24.9

Continue with the compound presented below.
growth for K-562 leukemia with input CN1CCN(c2ccc3c4c(cccc24)C(=O)N(c2cccc(-c4nn(-c5ccccc5)cc4-c4nc5ccccc5s4)c2)C3=O)CC1 equals -57.6

====

Known growth of a selection of compounds
System: SF-268 CNS
Assay: NCI-60 one-dose screen, 48 h (100 = growth as untreated, 0 = no growth, -100 = all killed)
Conditions: 10 µM unless noted
Compounds without any hit were thinned out: in the full panel of roughly 83,000, 20% have a hit.
Write the number in % without appending the unit.

Worked cases, growth given:
COMPOUND: CN(CCSSCCN1CCOCC1)C(=O)Oc1cc2c(c3ccccc13)[C@H](CCl)CN2C(=O)c1cc2cc(OCCCN3CCC3)ccc2[nH]1
TARGET_OF_ASSAY: SF-268 CNS
growth (%): 3.42

COMPOUND: OC1CCC(Cn2c(C(F)(F)F)cc3c(Cl)ncnc32)CC1 (configuration not stated)
TARGET_OF_ASSAY: SF-268 CNS
growth (%): -36.4

COMPOUND: CC[C@]12C=CCN3CC[C@@]4(c5ccc(OC)cc5N(C)[C@H]4[C@@](O)(C(=O)OC)[C@@H]1OC(=O)CCCC[P+](c1ccc(F)cc1)(c1ccc(F)cc1)c1ccc(F)cc1)[C@@H]32
TARGET_OF_ASSAY: SF-268 CNS
growth (%): 28.1

COMPOUND: CNc1nc2ccccc2n2c(-c3ccc(O)c(O)c3)cnc12
TARGET_OF_ASSAY: SF-268 CNS
growth (%): 5.12

COMPOUND: Nc1cc(-c2c[nH]c3ccc(Br)cc23)nc2cc(-c3c[nH]c4ccccc34)nn12
TARGET_OF_ASSAY: SF-268 CNS
growth (%): -44.5

Record Fc1ccccc1CNc1nc(SCCN2CCOCC2)nc2c1cnn2CC(Cl)c1ccc(Br)cc1 (configuration not stated) , field growth: 41.4

Record COc1ccc(N=Nc2c(N)nn3c(-c4ccc(OC)c(OC)c4)ccnc23)cc1 , field growth: 87.2

Record CCOc1ccccc1NC(=O)N/C(N)=N/c1nc2ccccc2s1 , field growth: 27.3

Record Cc1ccc(C(=O)Nc2cc(-n3ccnc3)cc(C(F)(F)F)c2)cc1-n1cc(-c2cnc3cccnn23)nn1 , field growth: 120

Record Cc1ccc(C2CC(c3ccc(S(=O)(=O)NCCNc4nc(N(C)C)nc(N5CCOCC5)n4)cc3)=Nc3c(N)nc(N)nc3N2)cc1 (configuration not stated) , field growth: 45.2

Record CCCCCCCCCc1ccc(C(=O)Nc2cc(C)ccc2C(=O)OC)cc1 , field growth: 116

Record Cc1ccc(C(C(=O)NC2CCCCC2)N(Cc2ccccc2Cl)C(=O)c2ccc(CN3CCOCC3)o2)o1 (configuration not stated) , field growth: 83.5

Record Cc1ccc2c(c1)nc(-c1ccccc1)n2CC(=O)N=Nc1c(O)[nH]c2ccc(Cl)cc12 , field growth: 2.28

Record Cc1cc(C(NC(=O)C2CC3(CC(Nc4cccc5c4C(=O)N(C4CCC(=O)NC4=O)C5=O)C3)C2)c2ccc3c(c2)OC(F)(F)O3)c(O)c2ncccc12 (configuration not stated) , field growth: 14.4

Record COc1ccc(/C=C/C(=O)c2ccc(OC)c(S(N)(=O)=O)c2)c(C(F)(F)F)c1 , field growth: 15.5

Record O=C(Cn1c(-c2ccccc2)nc2ccccc21)N=Nc1c(O)[nH]c2ccc(Cl)cc12 , field growth: 7.18

Record O=C(c1ccc(Cl)cc1)C1[C@H](c2ccccc2Cl)[C@@H](c2ccccc2)NC12C(=O)Nc1ccc(Br)cc12 (some centres not stated) , field growth: -45.1
